Value source: PubChem BioAssay AID1159580

# assay: chemical genetic growth profiling, strain panel (AID 1159580);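 further: tested at 20 µM; growth read once vehicle control cultures reached saturation at 30 °C; 1 = growth at the plate median or of vehicle wells; lower values mean less growth of the strain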
# conditionNotes: S. cerevisiae deletion strains, growth OD, locus YOR144C, strain elg1, stronger effect = lower value
In all, about 5,500 compounds went through this assay and about 2,000 (36%) were called active. Another 18% or so got no clear call; they are omitted. The list shows a part of the results.
Listing: normalized growth of selected compounds
readoutLabel: normalized growth

compound=COc1ccc(-c2coc3cc(OC)ccc3c2=O)cc1 reportedmeasurement=0.937
compound="C/C=C(\\C)C(=O)O[C@H]1C[C@@H](OC(C)=O)[C@@]2(C(=O)OC)CO[C@@H]3C2[C@]12CO[C@](O)(C(=O)OC)[C@H]2[C@](C)(C12O[C@@]1(C)[C@H]1C[C@@H]2OC2OC=C[C@@]21O)[C@@H]3O (some centres undefined)" reportedmeasurement=0.973
compound=COc1ccc(-c2coc3cc(O)ccc3c2=O)cc1 reportedmeasurement=0.968
compound=COc1ccc(-c2coc3cc(O)ccc3c2=O)c(OC)c1 reportedmeasurement=0.988

* * *

# assay: chemical genetic growth profiling, strain panel (AID 1159580);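 further: tested at 20 µM; growth read once vehicle control cultures reached saturation at 30 °C; 1 = growth at the plate median or of vehicle wells; lower values mean less growth of the strain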
# conditionNotes: S. cerevisiae deletion strains, growth OD, locus YOR106W, strain vam3
The whole screen tested about 5,500 compounds, of which about 2,000 (36%) were called active. Roughly 18% stayed inconclusive and do not appear here. Rule as the data show it: active = normalized growth mostly below about 0.91 (no sharp cut-off); inconclusive = no clear call, values can overlap the other calls; inactive = mostly above about 0.92. The list shows a part of the results.
Outcomes: TRUE = active, FALSE = inactive

compound="COC(=O)C1=COC(OC2OC(CO)C(O)C(O)C2O)C2C(C)CC(=O)C12 (centres undefined)" classification=FALSE
compound=O=C(NC(=O)c1ccccc1Cl)Nc1ccc(OC(F)(F)F)cc1 classification=FALSE
compound="COc1ccc(C2CNC(=O)C2)cc1OC1CCCC1 (centres undefined)" classification=FALSE
compound="CN(C)CCOC(c1ccc(Cl)cc1)c1ccccn1 (centres undefined)" classification=FALSE
compound=CCCc1cc(C(N)=S)ccn1 classification=FALSE
compound=CC[C@@H]1C=C/C=C/C[C@H](C)[C@@H](O)[C@](C)(O)C(=O)[C@H](C)[C@@H](O)[C@H](C)C(=O)[C@H](C)[C@@H](O)[C@H](C)/C=C/C(=O)O[C@H]2[C@@H](C)[C@@H](CC1)O[C@@]1(CC[C@@H](C)[C@@H](C[C@H](C)O)O1)[C@@H]2C classification=FALSE
compound=O=S(=O)(O)c1cc(N=C=S)ccc1/C=C/c1ccc(N=C=S)cc1S(=O)(=O)O classification=FALSE
compound=CCN(CC)C(=O)N1CCN(C)CC1 classification=FALSE
compound=CN1CCC(OC(c2ccccc2)c2ccccc2)CC1 classification=FALSE
compound=CCCCCCCCCCCCCc1ccco1 classification=FALSE
compound=NCCc1cnc[nH]1 classification=FALSE
compound="CCn1cc(C(=O)O)c(=O)c2cc(F)c(N3CCNC(C)C3)c(F)c21 (centres undefined)" classification=FALSE
compound="CC(=O)O[C@H]1C[C@@H](OC(C)=O)C(C)(C)C2CC(=O)[C@]3(C)C(CC[C@@]4(C)[C@H](C(=O)O)OC(=O)C5OC543)[C@]21C (some centres undefined)" classification=FALSE
compound=COc1ccc(C(=O)CC(=O)O)c2c1C=CC(C)(C)O2 classification=FALSE
compound="C[C@@H]1CC(Cl)CC[C@H]1C(=O)OC(C)(C)C (some centres undefined)" classification=FALSE
compound=CCOC(=O)n1ccn(C)c1=S classification=FALSE
compound="c1ccc2c(c1)CCCC2C1=NCCN1 (centres undefined)" classification=FALSE
compound=Cc1ccc(S(=O)(=O)NC(=O)NN2CCCCCC2)cc1 classification=FALSE
compound=COc1ccc2c(c1)OC/C(=C\c1ccc(OC)c(O)c1)C2=O classification=TRUE
compound=OCCc1ccccc1 classification=FALSE
compound=O=C(O)CCCc1ccc(N(CCCl)CCCl)cc1 classification=FALSE
compound=O=C(O)CCCc1ccccc1 classification=FALSE
compound=O=C(O)c1cc2cc(F)ccc2[nH]1 classification=FALSE
compound="COc1ccc(OC)c(C(O)CNC(=O)CN)c1 (centres undefined)" classification=FALSE

* * *

# assay: chemical genetic growth profiling, strain panel (AID 1159580);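 further: tested at 20 µM; growth read once vehicle control cultures reached saturation at 30 °C; 1 = growth at the plate median or of vehicle wells; lower values mean less growth of the strain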
# conditionNotes: S. cerevisiae deletion strains, growth OD, locus YJL187C, strain SWE1, stronger effect = lower value
Hit rate of the full screen: of about 5,500 compounds, about 2,000 (36%) were called active. Another 18% or so got no clear call; they are omitted. This is one part of the list.
readoutLabel: normalized growth

compound=CN1CCC(OC(c2ccccc2)c2ccccc2)CC1 reportedmeasurement=0.983
compound="O=C(CC1NCCN(Cc2ccccc2)C1=O)Nc1ccc(Cl)cc1 (stereo not given)" reportedmeasurement=1.01
compound="C[C@]12CCC(=O)C=C1C=CC1C2CC[C@@]2(C)C1CC[C@@]2(O)CCC(=O)O (stereo not given in full)" reportedmeasurement=1.03
compound=CN1CC(=O)N=C1N reportedmeasurement=1.03
compound="CC(C)NCC(O)COc1cccc2[nH]ccc12 (stereo not given)" reportedmeasurement=0.985
compound=C#CCCCCCCCCCCCc1ccco1 reportedmeasurement=1
compound=COc1ccc(-n2c(=S)[nH]c(=O)c3cccnc32)cc1 reportedmeasurement=0.99
compound=O=C(CSc1ccc(Cl)cc1)Nc1ccc(F)cc1 reportedmeasurement=1
compound=CC[C@@H]1C=C/C=C/C[C@H](C)[C@@H](O)[C@](C)(O)C(=O)[C@H](C)[C@@H](O)[C@H](C)C(=O)[C@H](C)[C@@H](O)[C@H](C)/C=C/C(=O)O[C@H]2[C@@H](C)[C@@H](CC1)O[C@@]1(CC[C@@H](C)[C@@H](C[C@H](C)O)O1)[C@@H]2C reportedmeasurement=1.01
compound="C=CC[C@]1(O)CCC2C3CCC4=CC(=O)CCC4=C3C=C[C@@]21C (stereo not given in full)" reportedmeasurement=0.993
compound=Cc1[nH]c2ccccc2c1CN(C)C reportedmeasurement=1.02
compound=CCCCCCCCCCCCCc1ccco1 reportedmeasurement=0.978
compound="Cn1c(=O)c2c(ncn2CC(O)CO)n(C)c1=O (stereo not given)" reportedmeasurement=0.981
compound=CSc1nc2ccccc2[nH]1 reportedmeasurement=0.973
compound="CCCCC/C=C/CCC(=O)N[C@H]1[C@H](Oc2c3cc4cc2Oc2ccc(cc2Cl)[C@@H](O[C@@H]2O[C@H](CO)[C@@H](O)[C@H](O)[C@H]2NC(C)=O)[C@@H]2NC(=O)[C@H](NC(=O)[C@@H]4NC(=O)[C@H]4NC(=O)C(Cc5ccc(c(Cl)c5)O3)NC(=O)[C@H](N)c3ccc(O)c(c3)Oc3cc(O)cc4c3)c3ccc(O)c(c3)-c3c(OC4O[C@H](CO)[C@@H](O)[C@H](O)[C@@H]4O)cc(O)cc3[C@@H](C(=O)O)NC2=O)O[C@H](CO)[C@@H](O)[C@@H]1O (stereo not given in full)" reportedmeasurement=1

* * *

# assay: chemical genetic growth profiling, strain panel (AID 1159580);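 further: tested at 20 µM; growth read once vehicle control cultures reached saturation at 30 °C; 1 = growth at the plate median or of vehicle wells; lower values mean less growth of the strain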
# conditionNotes: S. cerevisiae deletion strains, growth OD, locus YKL085W, strain MDH1, stronger effect = lower value
Screen size: about 5,500 compounds; about 2,000 (36%) were called active. Inconclusive results (about 18%) are left out. Some of the results follow.
readoutLabel: normalized growth

compound=CN1C2C[C@H](OC(=O)[C@H](CO)c3ccccc3)C[C@H]1[C@@H](O)C2 reportedmeasurement=1.01
compound="OCC(O)CN1CCN(c2ccccc2)CC1 (configuration not stated)" reportedmeasurement=0.99
compound="C/C=C(\\C)C(=O)O[C@H]1C[C@@H](OC(C)=O)[C@@]2(C(=O)OC)CO[C@@H]3C2[C@]12CO[C@](O)(C(=O)OC)[C@H]2[C@](C)(C12O[C@@]1(C)[C@H]1C[C@@H]2OC2OC=C[C@@]21O)[C@@H]3O (some centres not stated)" reportedmeasurement=0.998
compound=Oc1cc(O)c2c(c1)O[C@H](c1ccc(O)c(O)c1)[C@H](O)C2 reportedmeasurement=0.981
compound="CN1C2CCC1CC(OC(c1ccccc1)c1ccccc1)C2 (configuration not stated)" reportedmeasurement=0.978
compound=Oc1ccc2c(c1)O[C@H](c1ccc(O)c(O)c1)[C@@H](O)C2 reportedmeasurement=1.01
compound=O=C1C(Cl)=C(Cl)C(=O)C(Cl)=C1Cl reportedmeasurement=0.0519
compound=CN(C)CCN(Cc1cccs1)c1ccccn1 reportedmeasurement=0.997
compound="c1ccc2c(c1)CCCC2C1=NCCN1 (configuration not stated)" reportedmeasurement=1.01
compound="CCC(C)C(=O)O[C@@H]1C[C@@]2(C)[C@H](c3ccoc3)OC(=O)CC23OC2(C)O[C@]14[C@]1(C)[C@@H](CC(=O)OC)C5(C)CC1(O)[C@](O)(C5OC(=O)C1(C)OC1C)[C@@H](OC(C)=O)[C@]34O2 (some centres not stated)" reportedmeasurement=1
compound=CC(=O)Oc1cc(OC(C)=O)c2c(c1)O[C@H](c1ccc(OC(C)=O)c(OC(C)=O)c1)[C@@H](OC(C)=O)C2 reportedmeasurement=0.983
compound=Oc1cc(O)c2c(c1)O[C@H](c1cc(O)c(O)c(O)c1)[C@H](O)C2 reportedmeasurement=1
compound="CCC(C)C(=O)O[C@@H]1C[C@@]2(C)[C@H](c3ccoc3)OC(=O)CC23OC2(C)OC34[C@H](OC(=O)C(C)C)[C@@]3(O)[C@@H](OC(=O)C5(C)OC5C)[C@@]5(C)C[C@]3(O)[C@@](C)([C@H]5CC(=O)OC)C14O2 (some centres not stated)" reportedmeasurement=1
compound=O=C1c2ccc(O)cc2O[C@H](c2cc(O)c(O)c(O)c2)[C@H]1O reportedmeasurement=1.01
compound="COC(=O)CC1C2(C)CC34OC5(C)OC6(C7/C(=C(/O)C(C)C)C(=O)OC(c8ccoc8)C7(C)C(OC(=O)C(C)C)C(OC)C6(O5)C13C)C(OC)C4(OC)C2OC(C)=O (configuration not stated)" reportedmeasurement=1
compound=CN1CC(=O)N=C1N reportedmeasurement=0.998
compound="CN1C2CCC1CC(OC(c1ccccc1)c1ccccc1N)C2 (configuration not stated)" reportedmeasurement=1
